- Test system: Influenza A virus
- PROCEDURE TEXT: Inhibition of Influenza A virus wild type M2 proton channel expressed in Xenopus laevis oocyte at 100 uM after 2 mins by two-electrode […] clamp assay
Binary call on inhibition: y from 40% upward, n beneath that.

COMPOUND	CATEGORY
COc1ccc(COC23CC4CC(CC(C4)C2)C3)cc1	y
NC(=O)c1ccc(CNC23CC4CC(CC(C4)C2)C3)cc1	n
Oc1cccc(CNC23CC4CC(CC(C4)C2)C3)c1	y
c1cc2c(cc1CNC13CC4CC(CC(C4)C1)C3)OCO2	y
c1cc2cn[nH]c2cc1CNC12CC3CC(CC(C3)C1)C2	y
COc1ccc(CN(C)C23CC4CC(CC(C4)C2)C3)cc1	n
Oc1ccc(CNC23CC4CC(CC(C4)C2)C3)cc1	y
COc1ccc(CNC23CC4CC(CC(C4)C2)C3)cc1	y
c1cc(-c2nnn[nH]2)ccc1CNC12CC3CC(CC(C3)C1)C2	n
c1nc2cc(CNC34CC5CC(CC(C5)C3)C4)ccc2[nH]1	n
Oc1ccc(CNC23CC4CC(CC(C4)C2)C3)cc1Cl	y
COc1ccc(CNC23CC4CC(CC(C4)C2)C3)c(OC)c1	n
COc1ccc(CNC23CC4CC(CC(C4)C2)C3)cc1O	y
Oc1ccc(CNC23CC4CC(CC(C4)C2)C3)c(O)c1	y
OCc1ccc(CNC23CC4CC(CC(C4)C2)C3)cc1	n
COc1cc(O)ccc1CNC12CC3CC(CC(C3)C1)C2	n
Oc1ccc(/C=N/C23CC4CC(CC(C4)C2)C3)cc1	y
c1cn(-c2ccc(CNC34CC5CC(CC(C5)C3)C4)cc2)cn1	n
c1cc(CNC23CC4CC(CC(C4)C2)C3)co1	y
Oc1ccc(CNC23CC4CC(CC(C4)C2)C3)c(Cl)c1	y
Oc1ccccc1CNC12CC3CC(CC(C3)C1)C2	y
NCc1ccc(CNC23CC4CC(CC(C4)C2)C3)cc1	n
c1cc(CNC23CC4CC(CC(C4)C2)C3)ccn1	n
N#Cc1ccc(CNC23CC4CC(CC(C4)C2)C3)cc1	n
C[S+]([O-])c1ccc(CNC23CC4CC(CC(C4)C2)C3)cc1 (stereo not given)	n
Fc1ccc(CNC23CC4CC(CC(C4)C2)C3)cc1	y
c1cnn(-c2ccc(CNC34CC5CC(CC(C5)C3)C4)cc2)c1	n
CC(=O)c1ccc(CNC23CC4CC(CC(C4)C2)C3)cc1	n
Oc1ccc(CNC23CC4CC(CC(C4)C2)C3)cc1F	y
COc1cc(CNC23CC4CC(CC(C4)C2)C3)ccc1O	y
O=[N+]([O-])c1cc(CNC23CC4CC(CC(C4)C2)C3)ccc1O	y
Oc1ccc(CNC23CC4CC(CC(C4)C2)C3)cc1O	y
CC(=O)Nc1ccc(CNC23CC4CC(CC(C4)C2)C3)cc1	n
CS(=O)(=O)c1ccc(CNC23CC4CC(CC(C4)C2)C3)cc1	y
C[C@@H]1[C@@H](/N=C/c2ccc(O)cc2)C[C@H]2C[C@@H]1C2(C)C	y
Nc1ccc(CNC23CC4CC(CC(C4)C2)C3)cc1	n
CC(C)(C)OC(=O)Nc1ccc(CNC23CC4CC(CC(C4)C2)C3)cc1	n
COC(=O)[C@H](Cc1cnc[nH]1)NCC12CC3CC(CC(C3)C1)C2	n
c1ccc(CNC23CC4CC(CC(C4)C2)C3)cc1	y
O=[N+]([O-])c1ccccc1CNC12CC3CC(CC(C3)C1)C2	y
